Overview of reported Activity across a group of compounds:
- Tested on: HepG2
- Protocol text: Induction of apoptosis in human HepG2 cells assessed as necrotic cells at 20 uM measured after 48 hrs by Annexin V-FITC/propidium iodide staining based flow cytometry (reference value: 0.52%)
- Type: functional
// note: answer is a bare numeric in %

# Input smiles, Activity [%]
records = [
    ("Cc1cc(OCCOc2ccc(C[C@H](NC(=O)c3ccccc3)C(=O)NS(=O)(=O)c3ccc(NCCCc4ccccc4)c([N+](=O)[O-])c3)cc2)cc(C)c1Cl", 4.13),
    ("Cc1ccc(CC(=O)N[C@@H](Cc2cc(Br)c(OCCOc3cccc4ccccc34)c(Br)c2)C(=O)NS(=O)(=O)c2ccc(NCCCc3ccccc3)c([N+](=O)[O-])c2)cc1", 2.04),
]

Consider the compound `O=C(O)CSc1cc(NS(=O)(=O)c2ccc(Br)cc2)c2ccccc2c1O` and give its measured Activity.
0.45

Dear colleague, I am looking for the recorded Activity of the following compound: `Cc1cc(OCCCOc2ccc(C[C@H](NC(=O)OC(C)(C)C)C(=O)NS(=O)(=O)c3ccc(NCCCc4ccccc4)c([N+](=O)[O-])c3)cc2)cc(C)c1Cl`
2.64

###

Property: inhibition; scope: individual compounds
- Tested on: Bcl-2-like protein 1 (Homo sapiens) (UniProt Q07817)
- Sequence (Q07817 whole entry, the tested form may be a part): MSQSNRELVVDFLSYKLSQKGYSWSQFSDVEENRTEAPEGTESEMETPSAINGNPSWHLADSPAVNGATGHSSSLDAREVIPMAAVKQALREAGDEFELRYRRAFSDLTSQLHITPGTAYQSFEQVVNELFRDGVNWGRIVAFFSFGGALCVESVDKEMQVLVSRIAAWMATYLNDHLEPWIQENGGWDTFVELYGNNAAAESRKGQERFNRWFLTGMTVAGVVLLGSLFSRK
- Protocol text: Inhibition of 5-FAM-BH3 peptide binding to human N-terminal GST-tagged BCL-XL (1 to 212 residues) expressed in Escherichia coli BL21 (DE3) at 100 uM by fluorescence polarization assay relative to control

Sample answers from the record:
# Input smiles, inhibition
rows = [
    ("Cc1cc(OCCCOc2ccc(C[C@H](NC(=O)OC(C)(C)C)C(=O)NS(=O)(=O)c3ccc(NCCCc4ccccc4)c([N+](=O)[O-])c3)cc2)cc(C)c1Cl", "> 50%"),
    ("Cc1ccc(CC(=O)N[C@@H](Cc2cc(Br)c(OCCOc3cccc4ccccc34)c(Br)c2)C(=O)NS(=O)(=O)c2ccc(NCCCc3ccccc3)c([N+](=O)[O-])c2)cc1", "> 50%"),
    ("Cc1ccc(CC(=O)N[C@@H](Cc2cc(I)c(OCCOc3cccc4ccccc34)c(I)c2)C(=O)NS(=O)(=O)c2ccc(NCCCc3ccccc3)c([N+](=O)[O-])c2)cc1", "> 50%"),
]

Fill in the blank: the reported inhibition of `Cc1cc(OCCOc2ccc(C[C@H](NC(=O)c3ccccc3)C(=O)NS(=O)(=O)c3ccc(NCCCc4ccccc4)c([N+](=O)[O-])c3)cc2)cc(C)c1Cl` is ____.
> 50%

Would you kindly share the measured inhibition for `O=C(O)CSc1cc(NS(=O)(=O)c2ccc(Br)cc2)c2ccccc2c1O` ?
> 50%

Please report the recorded inhibition for `Cc1cc(OCCCCOc2ccc(C[C@H](NC(=O)OC(C)(C)C)C(=O)NS(=O)(=O)c3ccc(NCCCc4ccccc4)c([N+](=O)[O-])c3)cc2)cc(C)c1Cl` .
> 50%
